# TEST DESCRIPTION: Cmax in Sprague-Dawley rat at 10 mg/kg, po
# Type: ADME, organism-based
# Set-up: dose 10 mg/kg, route oral
# EXPERIMENTAL CONTEXT: in vivo
REPORTED METRIC: Cmax (ng/mL)
Give bare numbers, in ng/mL.

Problem: # lookup: Cmax of CC1(c2ccc(Nc3nc(N4CCCCC4)nc(N4CCCCC4)n3)cc2)NC(=O)c2ccccc2N1 (stereo unspecified)
Result: 108

* * *

Provide the recorded bioavailability for the entries that follow.
# TEST DESCRIPTION: Oral bioavailability in Sprague-Dawley rat at 10 mg/kg
# Type: ADME, organism-based
# EXPERIMENTAL CONTEXT: in vivo
One number for each entry, in %.

CC1(c2ccc(Nc3nc(N4CCCCC4)nc(N4CCCCC4)n3)cc2)NC(=O)c2ccccc2N1 (configuration not stated) :: 5.75

Now consider the entry below.
Problem: # lookup: bioavailability of CC1(c2ccc(Nc3nc(N4CCc5ccccc5C4)nc(N4CCc5ccccc5C4)n3)cc2)NC(=O)c2ccccc2N1 (configuration not stated)
Result: 2.94
